# System: NCI-H3122 (Lung Adenocarcinoma)
# experiment description: combination Emax (second highest fraction inhibited in the dose matrix, 72 h); higher = more inhibition; extreme values may be limits of the assay

compound: CN(C)CCCOc1ccc(-c2ccc3ncc4c(c3c2)n(C2CCOCC2)c(=O)n4C)cn1 [AZD0156] + CCN(CCO)CCCOc1ccc2c(Nc3cc(CC(=O)Nc4cccc(F)c4)[nH]n3)ncnc2c1 [AZD2811] (first compound max 1 µM, 7x7, partner max 1 µM)
combination Emax: 0.446
--
compound: Cc1c2c(nn1C)CSCc1cc(n(C)n1)CSc1cc(c3ccccc3c1)OCCCc1c(C(=O)O)n(C)c3c-2c(Cl)ccc13 [AZD5991] + Cc1cc2ncnn2cc1Nc1ncc2c(n1)n(C1CCOCC1)c(=O)n2C [AZD7648] (first compound max 1 µM, 7x7, partner max 10 µM)
combination Emax: 0.442
--
compound: Cn1cnc2c(F)c(Nc3ccc(Br)cc3Cl)c(C(=O)NOCCO)cc21 [Selumetinib] + C=CCn1c(=O)c2cnc(Nc3ccc(N4CCN(C)CC4)cc3)nc2n1-c1cccc(C(C)(C)O)n1 [AZD1775] (first compound max 10 µM, partner max 1 µM)
combination Emax: 0.78
--
compound: CN(CCO)CC[C@H](CSc1ccccc1)Nc1ccc(S(=O)(=O)NC(=O)c2ccc(N3CCC([C@@H](O)c4ccccc4-c4ccc(Cl)cc4)CC3)cc2)cc1S(=O)(=O)C(F)(F)F [AZD4320] + CN(C)CCCOc1ccc(-c2ccc3ncc4c(c3c2)n(C2CCOCC2)c(=O)n4C)cn1 [AZD0156] (first compound max 1 µM, 7x7, partner max 1 µM)
combination Emax: 0.209
--
compound: CC(=O)c1c(C)c2cnc(Nc3ccc(N4CCNCC4)cn3)nc2n(C2CCCC2)c1=O [Palbociclib] + Cn1cnc2c(F)c(Nc3ccc(Br)cc3Cl)c(C(=O)NOCCO)cc21 [Selumetinib] (first compound max 10 µM, 7x7, partner max 10 µM)
combination Emax: 0.701
--
compound: CCc1c2c(nc3ccc(O)cc13)-c1cc3c(c(=O)n1C2)COC(=O)[C@]3(O)CC [SN-38] + CN(C)CCCOc1ccc(-c2ccc3ncc4c(c3c2)n(C2CCOCC2)c(=O)n4C)cn1 [AZD0156] (first compound max 0.3 µM, 7x7, partner max 1 µM)
combination Emax: 0.925
--
compound: O=C(c1cc(Cc2n[nH]c(=O)c3ccccc23)ccc1F)N1CCN(C(=O)C2CC2)CC1 [Olaparib] + CN(CC[C@H](CSC1=CC=CC=C1)NC2=C(C=C(C=C2)S(=O)(=O)NC(=O)C3=CC=C(C=C3)N4CCC(CC4)[C@H](C5=CC=CC=C5C6=CC=C(C=C6)Cl)O)S(=O)(=O)C(F)(F)F)CCO [AZD4320] (first compound max 10 µM, 7x7, partner max 1 µM)
combination Emax: 0.223

* * *

Each entry below lists one item and its recorded combination Emax value.
# Test system: KY821 (Acute Myeloid Leukemia)
# experiment description: combination Emax (second highest fraction inhibited in the dose matrix, 72 h); higher = more inhibition; extreme values may be limits of the assay
recorded endpoint: combination Emax

compound: CN(CCO)CC[C@H](CSc1ccccc1)Nc1ccc(S(=O)(=O)NC(=O)c2ccc(N3CCC([C@@H](O)c4ccccc4-c4ccc(Cl)cc4)CC3)cc2)cc1S(=O)(=O)C(F)(F)F [AZD4320] + CN(C)CCCOc1ccc(-c2ccc3ncc4c(c3c2)n(C2CCOCC2)c(=O)n4C)cn1 [AZD0156] (first compound max 1 µM, 7x7, partner max 1 µM)
recorded endpoint: combination Emax
value measured: 1
//
compound: Cn1cnc2c(F)c(Nc3ccc(Br)cc3Cl)c(C(=O)NOCCO)cc21 [Selumetinib] + C=CCn1c(=O)c2cnc(Nc3ccc(N4CCN(C)CC4)cc3)nc2n1-c1cccc(C(C)(C)O)n1 [AZD1775] (first compound max 10 µM, partner max 1 µM)
recorded endpoint: combination Emax
value measured: 1

* * *

# Tested on: SK-GT-4 (Esophageal Adenocarcinoma)
# experiment description: combination Emax (second highest fraction inhibited in the dose matrix, 72 h); higher = more inhibition; extreme values may be limits of the assay

molecule: C=CCn1c(=O)c2cnc(Nc3ccc(N4CCN(C)CC4)cc3)nc2n1-c1cccc(C(C)(C)O)n1 [AZD1775] + C[C@@H]1COCCN1C2=NC(=NC(=C2)C3(CC3)[S@](=N)(=O)C)C4=C5C=CNC5=NC=C4 [AZD6738] (first compound max 1 µM, partner max 10 µM)
combination Emax: 0.722
//
molecule: COc1nnc2ccc(N3CCC(c4ccc(OCCN5CCN(C)C(=O)[C@H]5C)cc4)CC3)nn12 [AZD5153] + Cn1cnc2c(F)c(Nc3ccc(Br)cc3Cl)c(C(=O)NOCCO)cc21 [Selumetinib] (first compound max 1 µM, 7x7, partner max 10 µM)
combination Emax: 0.651
//
molecule: C[C@@H]1COCCN1c1cc(C2([S@](C)(=N)=O)CC2)nc(-c2ccnc3[nH]ccc23)n1 [AZD6738] + O=C(c1cc(Cc2n[nH]c(=O)c3ccccc23)ccc1F)N1CCN(C(=O)C2CC2)CC1 [Olaparib] (first compound max 10 µM, 7x7, partner max 10 µM)
combination Emax: 0.51
//
molecule: NC1(C(=O)N[C@@H](CCO)c2ccc(Cl)cc2)CCN(c2ncnc3[nH]ccc23)CC1 [Capivasertib] + Cn1cnc2c(F)c(Nc3ccc(Br)cc3Cl)c(C(=O)NOCCO)cc21 [Selumetinib] (first compound max 10 µM, 7x7, partner max 10 µM)
combination Emax: 0.767
//
molecule: Cc1cc2ncnn2cc1Nc1ncc2c(n1)n(C1CCOCC1)c(=O)n2C [AZD7648] + COc1cc([C@@H]2c3cc4c(cc3[C@@H](O[C@@H]3O[C@@H]5CO[C@@H](C)O[C@H]5[C@H](O)[C@H]3O)[C@H]3COC(=O)[C@H]23)OCO4)cc(OC)c1O [Etoposide] (first compound max 10 µM, 7x7, partner max 10 µM)
combination Emax: 0.387
//
molecule: COc1nnc2ccc(N3CCC(c4ccc(OCCN5CCN(C)C(=O)[C@H]5C)cc4)CC3)nn12 [AZD5153] + CC1(C)CCC(CN2CCN(c3ccc(C(=O)NS(=O)(=O)c4ccc(NCC5CCOCC5)c([N+](=O)[O-])c4)c(Oc4cnc5[nH]ccc5c4)c3)CC2)=C(c2ccc(Cl)cc2)C1 [Venetoclax] (first compound max 1 µM, 7x7, partner max 1 µM)
combination Emax: 0.484
//
molecule: COc1cccc2c1C(=O)c1c(O)c3c(c(O)c1C2=O)C[C@@](O)(C(=O)CO)C[C@@H]3O[C@H]1C[C@H](N)[C@H](O)[C@H](C)O1 [Doxorubicin] + Cc1cc2ncnn2cc1Nc1ncc2c(n1)n(C1CCOCC1)c(=O)n2C [AZD7648] (first compound max 1 µM, 7x7, partner max 10 µM)
combination Emax: 0.593

* * *

# System: NCI-H520 (Squamous Cell Lung Carcinoma)
# experiment description: combination Emax (second highest fraction inhibited in the dose matrix, 72 h); higher = more inhibition; extreme values may be limits of the assay
Reported combination Emax values for the following molecules.
recorded endpoint: combination Emax

molecule: CN(CCO)CC[C@H](CSc1ccccc1)Nc1ccc(S(=O)(=O)NC(=O)c2ccc(N3CCC([C@@H](O)c4ccccc4-c4ccc(Cl)cc4)CC3)cc2)cc1S(=O)(=O)C(F)(F)F [AZD4320] + Cc1cc2ncnn2cc1Nc1ncc2c(n1)n(C1CCOCC1)c(=O)n2C [AZD7648] (first compound max 1 µM, 7x7, partner max 10 µM)
value measured: 0.541
//
molecule: COc1nnc2ccc(N3CCC(c4ccc(OCCN5CCN(C)C(=O)[C@H]5C)cc4)CC3)nn12 [AZD5153] + C=CCn1c(=O)c2cnc(Nc3ccc(N4CCN(C)CC4)cc3)nc2n1-c1cccc(C(C)(C)O)n1 [AZD1775] (first compound max 1 µM, partner max 1 µM)
value measured: 0.811
//
molecule: CC1(C)CCC(CN2CCN(c3ccc(C(=O)NS(=O)(=O)c4ccc(NCC5CCOCC5)c([N+](=O)[O-])c4)c(Oc4cnc5[nH]ccc5c4)c3)CC2)=C(c2ccc(Cl)cc2)C1 [Venetoclax] + Cn1cnc2c(F)c(Nc3ccc(Br)cc3Cl)c(C(=O)NOCCO)cc21 [Selumetinib] (first compound max 1 µM, 7x7, partner max 3 µM)
value measured: 0.113

* * *

# Tested on: NCI-H526 (Small Cell Lung Carcinoma)
# experiment description: combination Emax (second highest fraction inhibited in the dose matrix, 72 h); higher = more inhibition; extreme values may be limits of the assay
recorded endpoint: combination Emax

compound: CN(C)CCCOc1ccc(-c2ccc3ncc4c(c3c2)n(C2CCOCC2)c(=O)n4C)cn1 [AZD0156] + CCN(CCO)CCCOc1ccc2c(Nc3cc(CC(=O)Nc4cccc(F)c4)[nH]n3)ncnc2c1 [AZD2811] (first compound max 1 µM, 7x7, partner max 1 µM)
assayed system: NCI-H526 (Small Cell Lung Carcinoma)
value measured: 0.373
--
compound: Cn1cnc2c(F)c(Nc3ccc(Br)cc3Cl)c(C(=O)NOCCO)cc21 [Selumetinib] + C=CCn1c(=O)c2cnc(Nc3ccc(N4CCN(C)CC4)cc3)nc2n1-c1cccc(C(C)(C)O)n1 [AZD1775] (first compound max 10 µM, partner max 1 µM)
assayed system: NCI-H526 (Small Cell Lung Carcinoma)
value measured: 0.69
--
compound: Cc1c2c(nn1C)CSCc1cc(n(C)n1)CSc1cc(c3ccccc3c1)OCCCc1c(C(=O)O)n(C)c3c-2c(Cl)ccc13 [AZD5991] + CN(C)CCCOc1ccc(-c2ccc3ncc4c(c3c2)n(C2CCOCC2)c(=O)n4C)cn1 [AZD0156] (first compound max 1 µM, 7x7, partner max 1 µM)
assayed system: NCI-H526 (Small Cell Lung Carcinoma)
value measured: 0.378
--
compound: NC1(C(=O)N[C@@H](CCO)c2ccc(Cl)cc2)CCN(c2ncnc3[nH]ccc23)CC1 [Capivasertib] + Cn1cnc2c(F)c(Nc3ccc(Br)cc3Cl)c(C(=O)NOCCO)cc21 [Selumetinib] (first compound max 10 µM, 7x7, partner max 10 µM)
assayed system: NCI-H526 (Small Cell Lung Carcinoma)
value measured: 0.249
